Provenance of the data: patent US20240150465A1

# Target Under Test: T1, human DLL3 (delta-like protein 3 isoform 1 precursor) expressed on Ba/F3 cells (human, UniProt Q9NYJ7 27-618)
# T1 construct: Full-length cDNA stably transfected into mouse Ba/F3 cells; also called human DLL3 expressing Ba/F3
# T1 sequence: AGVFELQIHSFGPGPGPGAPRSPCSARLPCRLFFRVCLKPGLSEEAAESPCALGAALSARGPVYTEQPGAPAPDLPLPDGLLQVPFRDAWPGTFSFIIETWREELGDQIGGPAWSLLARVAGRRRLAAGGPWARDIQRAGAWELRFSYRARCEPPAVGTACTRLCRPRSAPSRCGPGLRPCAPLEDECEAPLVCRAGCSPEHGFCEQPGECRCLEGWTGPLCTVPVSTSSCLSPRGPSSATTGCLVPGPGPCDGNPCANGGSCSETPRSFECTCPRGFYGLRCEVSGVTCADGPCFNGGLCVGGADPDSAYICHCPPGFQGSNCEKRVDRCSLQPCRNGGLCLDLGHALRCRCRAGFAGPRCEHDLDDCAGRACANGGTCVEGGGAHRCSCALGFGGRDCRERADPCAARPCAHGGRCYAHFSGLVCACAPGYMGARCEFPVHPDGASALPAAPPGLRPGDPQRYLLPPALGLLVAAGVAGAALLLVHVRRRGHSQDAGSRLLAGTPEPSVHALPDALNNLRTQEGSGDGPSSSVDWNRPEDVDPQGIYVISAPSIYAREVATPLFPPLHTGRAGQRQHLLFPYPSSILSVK
# Experimental Details: cell ELISA, B-cell culture supernatants on immobilized hDLL3/BaF_H3 cells
Experimental Endpoint: binding result

1. DLA0316 (antibody, human IgG1, V domains shown, Rabbit B-cell clone, screened as B-cell culture supernatant) VH: QEQLVESGGGLVQPGGSLKLSCKVSGFDFSNYGVSWVRQAPGKGLEWIGYIDPAFGRTYYASWVNGRFTISSHNAQNTLYLQLNSLTAADTATYFCVRVALVVAGVAYYGMDVWGPGTLVTVSS VL: DVVMTQTPASVEAAVGGTVTINCQASQNIYSYLSWYQQKPGQPPKLLIYRTSTLASGVPSRFKGSGSGTQFTLTISDLECADAATYYCQSYYYSSGSSYGAFAFGGGTEVVVK: binds
2. DLA0641 (antibody, human IgG1, V domains shown, Rabbit B-cell clone, screened as B-cell culture supernatant) VH: QEQLVESGGGLVQPGASLTLTCKASGFSFNTSYCPCWVRQVPGKGPEWIACIDAGYSGATWYANWAKGRFTISKTSSTTVTLQMTSLTGADTATYFCVRCDAAGSGAFNLWGPGTLVTVSS VL: AYDMTQTPASVEVPVGGTVTIKCQASQSIYSYLSWYQQKPGQPPKLLIYEASKLTSGVPSRFSGSGSGTEFTLTISGVQCDDAATYYCQQGSGYMDVDNVFGGGTEVVVK: binds
3. DLA0580 (antibody, human IgG1, V domains shown, Rabbit B-cell clone, screened as B-cell culture supernatant) VH: QEQLVESGGGLVQPGASLTLTCKASGFDFTSNAMCWVRQAPGKGPEWIACIYNDDGSAYSASWAKGRFTVSKTSSTAVTLQVTGLTAADTATYFCARSPYYTYGGAPSAYASGYFNLWGPGTLVTVSS VL: DIVMTQTPASVEAAVGGTVTIKCQASENIYNSLAWYQQKPGQPPKLLMHDASVLTSGVPSRFSGSGYGTEFTLTISDLECADAATYYCQSDYYSTGGSYGFAFGGGTEVVVK: binds
